# ASSAY_TARGET: dopamine D2s receptor (Homo sapiens (Human), UniProt P14416)
# Sequence (P14416 other isoform, or with tags, fused parts or gaps): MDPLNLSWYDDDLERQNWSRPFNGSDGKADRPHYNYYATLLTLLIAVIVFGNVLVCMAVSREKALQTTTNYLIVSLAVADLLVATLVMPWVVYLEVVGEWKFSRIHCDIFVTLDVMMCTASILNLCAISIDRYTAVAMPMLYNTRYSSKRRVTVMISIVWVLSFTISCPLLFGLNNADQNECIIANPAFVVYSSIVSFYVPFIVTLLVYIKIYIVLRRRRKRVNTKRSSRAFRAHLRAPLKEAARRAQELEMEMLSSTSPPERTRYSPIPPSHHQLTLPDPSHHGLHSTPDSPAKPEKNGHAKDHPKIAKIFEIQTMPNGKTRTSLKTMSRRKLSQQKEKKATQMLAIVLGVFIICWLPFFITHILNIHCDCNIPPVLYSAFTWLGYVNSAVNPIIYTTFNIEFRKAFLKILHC
# ASSAY_NOTES: D2 antagonist GTPγS functional assay
# Assay type: biochemical
# COND: antagonist mode
MEASURE_NAME: D2 Ant GTPγS Top Effect

[[record]]
compound = "c1ccc2c(c1)N=C(N1CCNCC1)c1ccccc1S2"
measure_name = "D2 Ant GTPγS Top Effect"
reported_measurement = 89

[[record]]
compound = "Clc1ccc2c(c1)C(N1CCNCC1)=Nc1ccccc1S2"
measure_name = "D2 Ant GTPγS Top Effect"
reported_measurement = 100

[[record]]
compound = "CN1CCN(C2=Nc3ccccc3Sc3ccc(F)cc32)CC1"
measure_name = "D2 Ant GTPγS Top Effect"
reported_measurement = 100

[[record]]
compound = "Fc1ccc2c(c1)C(N1CCNCC1)=Nc1ccccc1S2 [Example 1]"
measure_name = "D2 Ant GTPγS Top Effect"
reported_measurement = 97

[[record]]
compound = "CN1CCN(C2=Nc3ccccc3Sc3ccc(Cl)cc32)CC1"
measure_name = "D2 Ant GTPγS Top Effect"
reported_measurement = 100

